Target: fatty acyl CoA: cholesterol acyl transferase (ACAT) (Rattus norvegicus, UniProt O70536)
Construct: The supernatant, containing the microsomal fraction, served as the source of the cholesterol-esterifying enzyme; from tissue; host or cells: rat adrenals (1,000 x g supernatant containing the microsomal fraction)
Sequence (O70536 1-545): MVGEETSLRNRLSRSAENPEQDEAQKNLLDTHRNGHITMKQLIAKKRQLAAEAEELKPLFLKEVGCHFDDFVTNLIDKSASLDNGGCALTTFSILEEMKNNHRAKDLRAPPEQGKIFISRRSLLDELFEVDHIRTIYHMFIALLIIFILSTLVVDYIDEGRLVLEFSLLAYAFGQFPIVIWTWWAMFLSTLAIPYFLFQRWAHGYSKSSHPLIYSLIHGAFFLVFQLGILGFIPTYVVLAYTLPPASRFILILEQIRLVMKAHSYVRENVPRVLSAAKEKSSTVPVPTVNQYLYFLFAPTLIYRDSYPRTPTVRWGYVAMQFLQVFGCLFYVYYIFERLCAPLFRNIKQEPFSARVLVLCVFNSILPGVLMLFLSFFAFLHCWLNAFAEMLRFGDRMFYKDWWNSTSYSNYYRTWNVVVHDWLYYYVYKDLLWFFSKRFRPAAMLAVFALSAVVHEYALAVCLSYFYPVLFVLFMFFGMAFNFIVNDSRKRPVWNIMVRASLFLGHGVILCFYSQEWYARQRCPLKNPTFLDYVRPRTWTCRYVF
Test: Inhibition of enzymatic esterification of cholesterol (ACAT) in rat adrenal supernatant containing the microsomal fraction
Assay type: biochemical
Conditions: final concentration of test compound 5.2 μg./ml., percent inhibition of the ACAT enzyme compared to control values
Readout Name: inhibition at 5.2 µg/mL (%)

See these solved cases before continuing.
1. O=C(CCc1ccc(Cl)cc1)Nc1ccc(C(=O)O)cc1 [4-(p-Chlorohydrocinnamamido)benzoic acid] | 33
2. COC(=O)c1ccccc1NC(=O)C=C(c1ccc(Cl)cc1)c1ccc(Cl)cc1 | 71
3. O=C(CC(c1ccc(Cl)cc1)c1ccc(Cl)cc1)Nc1ccc(C(F)(F)F)cc1 | 35
4. COC(=O)c1cccc(NC(=O)C=C(c2ccc(Cl)cc2)c2ccc(Cl)cc2)c1 | 94
5. Cc1ccc(C(CC(=O)Nc2ccc(F)cc2)c2ccc(C)cc2)cc1 | 92
6. N#Cc1ccc(NC(=O)CC(c2ccc(Cl)cc2)c2ccc(Cl)cc2)cc1 | 96
7. O=C(C=C(c1ccc(Br)cc1)c1ccc(Br)cc1)Nc1ccc(C(=O)O)cc1 | 90
8. COc1ccc(C(CC(=O)Nc2ccc(C)cc2)c2ccc(OC)cc2)cc1 | 97

1 = Cc1ccc(C(CC(=O)Nc2ccc(C(F)(F)F)cc2)c2ccc(C)cc2)cc1
2 = CCOC(=O)c1ccc(NC(=O)C=C(c2ccccc2)c2ccccc2)cc1
Which record shows the lower inhibition at 5.2 µg/mL: the first, 1 , or the second, 2 ? Return value: the label identifying the chosen record.
2
(2: 40%, 1: 94%)
